meta.source: PubChem BioAssay (NCI)

# measurement.protocol: NCI Yeast Anticancer Drug Screen. Data for the mlh1 rad18 strain (AID 175)
# experimental.parameters: S. cerevisiae mlh1 rad18 strain growth inhibition; at 50.0 µM; stronger effect = higher value
Compounds without any hit were thinned out: in the full panel of roughly 79,000, 15% have a hit.
readout.kind: growth inhibition (%)
Enter your answer as a number in %; do not include the unit.

Qu. Note growth inhibition for the compound shown: `CN(C)CC/C(=N\Nc1ccc(Cl)c(Cl)c1)c1ccccc1`
Ans. 99.2

Qu. Could you please provide reported growth inhibition for `Cc1cc(Cc2cccc(Cl)c2)ccc1O` ? Thanks!
Ans. 99.5

Qu. Identify measured growth inhibition corresponding to `Cc1ccc(-[n+]2cc([O-])on2)cc1`
Ans. 28.4

Qu. Supply reported growth inhibition belonging to this compound: COc1ccc(C2SC(C)C(=O)N2c2nc(-c3nc(-c4ccc(Cl)cc4)cs3)cs2)cc1 (stereo not drawn)
Ans. 77

Qu. Supply reported growth inhibition belonging to this compound: `CC(=O)Nc1ccc2c(c1)Cc1cccc(F)c1-2`
Ans. 32.1

Qu. Return value of growth inhibition for input CC(=O)OC1CC2Cc3ccccc3C3(O)COC213 (stereo not drawn) , no commentary.
Ans. 31.1

Qu. Query growth inhibition for `CN[C@@H](Cc1cccc2ccccc12)C(=O)N[C@@H](CC(C)C)B(O)O`
Ans. 16.4

Qu. Read the entry CC(Cc1ccccc1)NNC(C)Cc1ccccc1 (stereo not drawn) and write its reported growth inhibition.
Ans. 99.5

Qu. Find the measured growth inhibition of COc1c(OC)c(C2(O)C(=O)N(C)c3ccccc32)c(OC)c(OC)c1C1(O)C(=O)N(C)c2ccccc21 (stereo not drawn) and report it.
Ans. 7.15

Qu. Assign growth inhibition to the following record: `Nc1ccc(-c2nc3ccccc3s2)cc1`
Ans. 84.6

Qu. Give growth inhibition for `Cc1ccc(S(=O)(=O)N/N=C(\C=C\c2ccccc2)c2ccccc2)cc1`
Ans. 37.1

Qu. Please give measured growth inhibition of the following entry: `O=c1[nH]c2ccccc2c(O)c1/C=N/C(=S)NCCc1ccccc1`
Ans. 7.5

Qu. Name the recorded growth inhibition of the compound listed here: CCC(c1ccc(OC)cc1)C(O)(CC)c1ccc(OC)cc1 (stereo not drawn)
Ans. 98.6

* * *

Answer each item with its documented growth inhibition.
# measurement.protocol: NCI Yeast Anticancer Drug Screen. Data for the sgs1 mgt1 strain (AID 161);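 further: 0% = growth of cultures given vehicle only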
# experimental.parameters: S. cerevisiae sgs1 mgt1 strain, at 50.0 µM, stronger effect = higher value
About 79,000 compounds went through this panel and 15% of them were active in at least one assay; those are over-represented in the sample as a whole.
Give the value in % but do not write % after it.

Qu. Read the entry CC(c1ccc(OCc2ccccc2)cc1)c1cc2c(cc1OCCO)OCO2 (centres undefined) and write its reported growth inhibition.
Ans. 31.9

Qu. Tell me growth inhibition reported for `Nc1ccc(CSc2ccc(Cl)cc2)cc1Cl`
Ans. 40.9

Qu. Identify measured growth inhibition corresponding to `COc1ccccc1NC(=O)CSC(N)=O`
Ans. 92.5

Qu. Could you please provide reported growth inhibition for `Oc1ccc(CNC2CCCCC2)cc1` ? Thanks!
Ans. 79.8

* * *

# measurement.protocol: NCI Yeast Anticancer Drug Screen. Data for the sgs1 mgt1 strain (AID 161);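 further: 0% = growth of cultures given vehicle only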
# experimental.parameters: S. cerevisiae sgs1 mgt1 strain, at 5.0 µM (retest, dose inferred, filed as 0.5)
Compounds without any hit were thinned out: in the full panel of roughly 79,000, 15% have a hit. The source made the active and inactive calls. Cut-off read from the data, not from the text of the source: active = growth inhibition above about 70%; inactive = the rest.
A correct response names exactly one class from active, inactive

Qu. # lookup: test call for `O=C1C(c2ccc(Br)cc2)=[N+]([O-])c2ccccc21`
Ans. inactive

Qu. What did this assay record as the result for BrC1(c2ccccc2)C[n+]2c(-c3ccccc3)cc(-c3ccccc3)cc2-c2ccccc21 (configuration not stated) ?
Ans. active

Qu. What is the recorded call for this compound in the test? CC(=O)OC1CCC2(C)C(C1)C(OC(C)=O)CC1C3CCC(c4cccc(=O)o4)C3(C)CCC12 (configuration not stated)
Ans. inactive

Qu. // outcome(item) with item = O=C(CC(O)(C(F)(F)F)C(F)(F)F)C(c1ccccc1)C(O)(C(F)(F)F)C(F)(F)F (configuration not stated)
Ans. inactive

Qu. Look up the recorded call for Cc1cn(C2CC(Br)C(COC(c3ccccc3)(c3ccccc3)c3ccccc3)O2)c(=O)[nH]c1=O (configuration not stated) in this test.
Ans. inactive

Qu. // param item: `C/C(=N\OC(=O)c1ccccc1)[N+](=O)[O-]` ; yields the recorded call
Ans. inactive

Qu. Please state the recorded outcome for this compound: OC(C(=Nc1ccccc1)c1ccccc1)c1ccccc1 (configuration not stated)
Ans. inactive

Qu. Would you mind telling me which call this test gave `COc1ccc2c(c1)c(=O)c1c(NCCN(C)C)ccc3nnn2c31` ?
Ans. inactive

Qu. Please let me know the test result on file for `O=[N+]([O-])c1cc(Cc2cc([N+](=O)[O-])c3cccnc3c2O)c(O)c2ncccc12` .
Ans. active

Qu. Hello, I am checking results. What call was entered for `Cc1n(CC(C)C)c2c([n+]1CC(=O)c1ccc([N+](=O)[O-])cc1)C(=O)c1ccccc1C2=O` ?
Ans. inactive

Qu. # outcome recorded in this test, key = `S=c1sc2nc(Cl)nc(Cl)c2s1`
Ans. active

Qu. Per the records of this test, what outcome belongs to `COc1ccc(NNC(=O)c2ccccc2)cc1` ?
Ans. inactive

Qu. Please share the test call associated with `c1ccc2c(c1)ccc1c[n+]3c4ccccc4ccc3n12` .
Ans. inactive

Qu. Recorded call for O=c1cccc(C2CCc3cc(O)ccc3C2)[nH]1 (configuration not stated) ?
Ans. inactive

Qu. Could you check what this test reported for `O=C1CNC(=O)c2cc(N=Cc3cc(Br)ccc3O)ccc2N1` ?
Ans. inactive

Qu. State the result this test recorded for `CCOP(=O)(OCC)/C(C#N)=C/c1coc2cc(C)cc(C)c2c1=O` .
Ans. inactive

Qu. Dear colleague, could you share the recorded outcome for `O=c1cccccc1[O-].O=c1cccccc1[O-].O=c1cccccc1[O-].[Ce+3]` when you have a moment?
Ans. inactive

Qu. Which outcome did this test record for the compound `COc1ccc(/C=C2\CCCc3ccccc3C2=O)cc1` ?
Ans. inactive

Qu. Tell me the recorded outcome of this test for `Cc1ccc(NC(=S)SCc2ccc3c(c2)OCO3)cc1Br` .
Ans. inactive

Qu. Name the outcome recorded for `COc1cc2c(cc1O)-c1c(cnn1-c1ccccc1)CCC2` in the assay.
Ans. inactive

Qu. What is the recorded call for this compound in the test? `O=C(CC(=O)Nc1cccc(Cl)c1)NNCC(=O)Nc1nnc(-c2ccccc2)s1`
Ans. inactive

Qu. Which outcome was entered for the compound `O=C(Nc1ccccc1)OCCN=c1c2ccccc2ccc2ccccc12` in this test?
Ans. inactive
